Value source: patent US4171299A

# Assay target: binding sites on mast cells (Homo sapiens, UniProt P12319)
# Construct: endogenous in cells; host or cells: skin mast cells of living human volunteers (intradermal injection sites on back or forearm)
# Sequence (P12319 26-257): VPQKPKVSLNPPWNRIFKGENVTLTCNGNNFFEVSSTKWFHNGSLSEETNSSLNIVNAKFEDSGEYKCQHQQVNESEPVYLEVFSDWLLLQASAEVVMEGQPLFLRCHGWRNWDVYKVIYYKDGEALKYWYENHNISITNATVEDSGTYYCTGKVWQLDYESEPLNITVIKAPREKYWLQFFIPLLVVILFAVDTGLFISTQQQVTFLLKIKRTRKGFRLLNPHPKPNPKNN
# Sequence (Q01362 1-244 partner): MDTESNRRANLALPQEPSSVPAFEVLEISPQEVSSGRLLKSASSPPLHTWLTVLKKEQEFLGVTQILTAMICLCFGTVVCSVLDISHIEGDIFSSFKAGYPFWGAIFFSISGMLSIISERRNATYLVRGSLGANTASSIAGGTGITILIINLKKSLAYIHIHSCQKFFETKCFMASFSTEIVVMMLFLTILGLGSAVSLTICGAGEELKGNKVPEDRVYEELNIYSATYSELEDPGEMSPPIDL
# Sequence (P30273 19-86 partner): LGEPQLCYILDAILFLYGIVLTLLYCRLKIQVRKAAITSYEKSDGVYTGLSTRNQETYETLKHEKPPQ
# Run description: Prausnitz-Kustner (P-K) reaction blocking activity assay in human volunteers
# Format: in vivo
# Recorded conditions: highest individual of six; same conditions as the average
Peptide text beside a SMILES is read from it.
Threshold rule: inhibition, individual high greater than or equal to 60% is True; below that, False.

[[record]]
compound = "N=C(N)NCCC[C@H](NC(=O)[C@@H]1CCCN1C(=O)[C@H](CC(=O)O)NC(=O)[C@@H](N)CO)C(=O)O [Ser-Asp-Pro-Arg] (H-SDPR-OH)"
category = "False"


[Q] Determine whether this compound has inhibition, individual high no lower than 60%: N=C(N)NCCC[C@H](NC(=O)[C@@H]1CCCN1C(=O)[C@H](CC(=O)O)NC(=O)[C@H](CO)NC(=O)[C@@H](N)CC(=O)O)C(=O)O [Asp-Ser-Asp-Pro-Arg] (H-DSDPR-OH)
[A] True

[Q] Check the entry N=C(N)NCCC[C@H](NC(=O)[C@@H]1CCCN1C(=O)[C@@H](N)CC(=O)O)C(=O)O [Asp-Pro-Arg] (H-Asp-Pro-Arg-OH) : does inhibition, individual high equal or exceed 60%?
[A] False

[Q] Hello, I need to know if C[C@H](NC(=O)[C@H](CCC(=O)O)NC(=O)[C@@H](NC(=O)[C@@H](N)CC(=O)O)[C@@H](C)O)C(=O)N[C@@H](CCCNC(=N)N)C(=O)O [Asp-Thr-Glu-Ala-Arg, reference compound] (H-DTEAR-OH) has measured inhibition, individual high not below 60%. Thanks!
[A] True
